% Cell Death values for the compounds below.
# experiment: MMV: MTT Cytotoxicity Assay Day 7 pi of Assay #6 (compound washed out Day 1 pi), U87-CD4-CCR5 cells, % cell death @ 5mM compound
# Format: toxicity, cell-based
# studyConditions: human, u87-cd4-ccr5, 5000 µM

Return reported % Cell Death. Input compound: OC(Cn1nnc2ccccc21)Cn1c2ccc(Br)cc2c2cc(Br)ccc21 (centres undefined)
2

Give a short answer stating reported % Cell Death for O=C(Nc1ccc(Cl)cc1)N1CCN(c2ccc3nncn3n2)CC1 .
83

Give reported % Cell Death value for CCOc1ccc(Nc2c3ccccc3nc3ccccc23)cc1.Cl
34

Give % Cell Death for CC(NCc1ccccc1)c1cc(Cl)ccc1O (centres undefined)
-2
